Reported viscosity values for a set of compounds
- ASSAY OVERVIEW: xn = mol fraction of the nth substance listed
- TEST PARAMETERS: 308.15 K; 101 kPa; x2 = 0.5
Use mPa·s as the unit, but write only the number.

CCCO + CO ... 0.788
Oc1ccccc1 + CS(C)=O ... 3.826
Oc1ccccc1 + C1COCCO1 ... 2.568

Value of viscosity reported for the compound CCCO + CCO is 1.139

---

- ASSAY OVERVIEW: xn = mol fraction of the nth substance listed
- TEST PARAMETERS: 298.15 K; 101 kPa; x2 = 0.5
± gives the uncertainty stated by the source.
Reported viscosity values for a set of compounds
Write the numeric value and follow it with the unit.

Answered cases to consult:
OC(C(F)(F)F)C(F)(F)F + CC(C)=O ... 0.838 ± 0.007 mPa·s
CCCO + CCO ... 1.407 ± 0.017 mPa·s
CCCO + CO ... 0.931 ± 0.012 mPa·s

Value of viscosity reported for the compound Oc1ccccc1 + CS(C)=O is 5.173 ± 0.053 mPa·s

---

- TEST PARAMETERS: 313 K; 101.3 kPa
Reported viscosity values for a set of compounds
Use mPa·s as the unit, but write only the number.

Answered cases to consult:
CCCO ... 1.317
CO ... 0.455
CNc1ccccc1 ... 1.386

Now for a further compound.
Value of viscosity reported for the compound `Oc1ccccc1` is 4.971

---

Reported viscosity values for a set of compounds
- TEST PARAMETERS: 298.15 K; 100 kPa
Use mPa·s as the unit, but write only the number.

CCCO ... 1.91
CC[n+]1ccccc1.N#C[N-]C#N ... 18.92
COC(=O)OC ... 0.58

Now for a further compound.
Value of viscosity reported for the compound `CO` is 0.5417

---

- TEST PARAMETERS: 303.15 K; 101.33 kPa
ASSAY ENDPOINT: log10(viscosity) (log10 of the value in mPa·s)
# values: log10(viscosity), units mPa·s

Oc1ccccc1 ... 0.85
COCCOCCOC ... -0.04
COC(=O)OC ... -0.30
CCCCCCN ... -0.15

Now for a further compound.
Value of log10(viscosity) reported for the compound `ClC(Cl)C(Cl)Cl` is 0.16

---

- TEST PARAMETERS: 298.15 K; 101 kPa
Reported viscosity values for a set of compounds
Use mPa·s as the unit, but write only the number.

Answered cases to consult:
Oc1ccccc1 ... 8.945
COC(=O)OC ... 0.58
CNc1ccccc1 ... 2.02

Value of viscosity reported for the compound `ClC(Cl)C(Cl)Cl` is 1.632
